assay: xn = mol fraction of the nth substance listed; settings: 318.15 K, Wilhelmy plate method, x1 = 0.8
The entries below are paired with their reported surface tension liquid-gas.
Measurement label: surface tension liquid-gas (mN/m)

| Molecule | Data value |
| --- | --- |
| CCOC(=O)CC(C)=O [ethyl 3-oxobutanoate] + CCO | 28.24 |
| CCC(=O)OCc1ccccc1 [benzyl propanoate] + CCO | 29.4 |
| CC(=O)OCc1ccccc1 [benzyl ethanoate] + CCO | 30.75 |
| CCOC(=O)CC(C)C [ethyl 3-methylbutanoate] + CCO | 21.4 |
| CCOC(=O)c1ccccc1O [ethyl 2-hydroxybenzoate] + CCO | 30.2 |
| COC(=O)c1ccccc1 [methyl benzoate] + CCO | 30.92 |

====

experiment: xn = mol fraction of the nth substance listed; conditions: 318.15 K, Wilhelmy plate method, x1 = 0.6
Measurement label: surface tension liquid-gas (mN/m)

| Compound | Data value |
| --- | --- |
| COC(=O)c1ccccc1 [methyl benzoate] + CCO | 28.2 |
| CCOC(=O)CC(C)C [ethyl 3-methylbutanoate] + CCO | 21.21 |
| CC(=O)OCc1ccccc1 [benzyl ethanoate] + CCO | 28.17 |
| CCOC(=O)c1ccccc1O [ethyl 2-hydroxybenzoate] + CCO | 27.38 |
| CCOC(=O)CC(C)=O [ethyl 3-oxobutanoate] + CCO | 26.31 |
| CCC(=O)OCc1ccccc1 [benzyl propanoate] + CCO | 27.28 |

====

assay: refractive index (Na D-line) (dimensionless); xn = mol fraction of the nth substance listed; conditions: 308.15 K; 100.5 kPa; Liquid; Standard Abbe refractometry; x1 = 0.75
The entries below are paired with their reported refractive index.

| Compound | refractive index |
| --- | --- |
| COC(=O)c1ccccc1 [methyl benzoate] + CCO | 1.49002 |
| CCOC(=O)CC(C)C [ethyl 3-methylbutanoate] + CCO | 1.38524 |
| CCC(=O)OCc1ccccc1 [benzyl propanoate] + CCO | 1.47658 |
| CCOC(=O)c1ccccc1O [ethyl 2-hydroxybenzoate] + CCO | 1.49779 |
| CC(=O)OCc1ccccc1 [benzyl ethanoate] + CCO | 1.47907 |
| CCOC(=O)CC(C)=O [ethyl 3-oxobutanoate] + CCO | 1.4051 |

====

experiment: xn = mol fraction of the nth substance listed; details: 288.15 K, Wilhelmy plate method, x1 = 0.75
Binary call on surface tension liquid-gas: yes (1) from 30 mN/m upward, no (0) beneath that.

| Molecule | Group label |
| --- | --- |
| CC(=O)OCc1ccccc1 [benzyl ethanoate] + CCO | yes (1) |
| CCOC(=O)CC(C)C [ethyl 3-methylbutanoate] + CCO | no (0) |
| CCOC(=O)c1ccccc1O [ethyl 2-hydroxybenzoate] + CCO | yes (1) |
| CCC(=O)OCc1ccccc1 [benzyl propanoate] + CCO | yes (1) |
| COC(=O)c1ccccc1 [methyl benzoate] + CCO | yes (1) |
| CCOC(=O)CC(C)=O [ethyl 3-oxobutanoate] + CCO | yes (1) |

====

test: xn = mol fraction of the nth substance listed; conditions: 308.15 K, Wilhelmy plate method, x1 = 0.1
The entries below are paired with their reported surface tension liquid-gas.

| Molecule | surface tension liquid-gas / mN/m |
| --- | --- |
| CCOC(=O)CC(C)C [ethyl 3-methylbutanoate] + CCO | 21.64 |
| COC(=O)c1ccccc1 [methyl benzoate] + CCO | 22.87 |
| CCOC(=O)c1ccccc1O [ethyl 2-hydroxybenzoate] + CCO | 22.94 |
| CCOC(=O)CC(C)=O [ethyl 3-oxobutanoate] + CCO | 22.42 |
| CCC(=O)OCc1ccccc1 [benzyl propanoate] + CCO | 23.1 |
| CC(=O)OCc1ccccc1 [benzyl ethanoate] + CCO | 23 |
